TARGET: Nitric oxide synthase 3 (Homo sapiens) (UniProt P29474)
Sequence (P29474 whole entry): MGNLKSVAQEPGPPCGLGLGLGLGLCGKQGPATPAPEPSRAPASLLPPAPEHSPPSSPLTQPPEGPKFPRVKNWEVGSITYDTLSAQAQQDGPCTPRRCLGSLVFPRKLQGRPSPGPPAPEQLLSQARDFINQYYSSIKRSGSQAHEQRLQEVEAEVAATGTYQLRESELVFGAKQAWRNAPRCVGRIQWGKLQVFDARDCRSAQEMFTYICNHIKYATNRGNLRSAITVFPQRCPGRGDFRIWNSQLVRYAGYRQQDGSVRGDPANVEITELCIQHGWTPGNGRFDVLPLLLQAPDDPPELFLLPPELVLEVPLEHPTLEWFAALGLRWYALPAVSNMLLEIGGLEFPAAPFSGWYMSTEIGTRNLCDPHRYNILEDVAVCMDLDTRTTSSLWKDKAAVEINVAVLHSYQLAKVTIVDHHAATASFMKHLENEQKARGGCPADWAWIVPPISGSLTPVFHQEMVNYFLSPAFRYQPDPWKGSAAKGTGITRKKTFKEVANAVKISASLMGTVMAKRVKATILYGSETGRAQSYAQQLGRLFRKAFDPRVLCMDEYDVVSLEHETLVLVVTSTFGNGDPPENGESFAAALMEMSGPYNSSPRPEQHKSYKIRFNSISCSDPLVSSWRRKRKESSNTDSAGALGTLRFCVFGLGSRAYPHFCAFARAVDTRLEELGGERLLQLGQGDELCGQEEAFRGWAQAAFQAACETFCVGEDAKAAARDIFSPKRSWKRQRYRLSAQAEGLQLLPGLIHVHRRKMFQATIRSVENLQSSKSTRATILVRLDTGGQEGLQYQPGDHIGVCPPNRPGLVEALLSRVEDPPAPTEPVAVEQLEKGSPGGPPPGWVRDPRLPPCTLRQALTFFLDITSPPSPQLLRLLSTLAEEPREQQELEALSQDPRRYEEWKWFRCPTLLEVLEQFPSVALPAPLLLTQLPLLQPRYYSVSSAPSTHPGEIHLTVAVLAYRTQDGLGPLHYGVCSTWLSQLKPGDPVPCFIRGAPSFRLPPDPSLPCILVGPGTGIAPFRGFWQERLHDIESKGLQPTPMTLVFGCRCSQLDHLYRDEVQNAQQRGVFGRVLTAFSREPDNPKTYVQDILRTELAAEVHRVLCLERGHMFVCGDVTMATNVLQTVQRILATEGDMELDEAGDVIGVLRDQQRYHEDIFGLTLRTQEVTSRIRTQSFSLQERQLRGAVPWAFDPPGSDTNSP
ASSAY_TEXT: Formation of Nitric Oxide by Nitric Oxide synthase III(% relative to NOHA)
Type: functional

# COMPOUND, RELATION, Initial rates
rows = [
    ("CCCCCC/N=C(/N)NO", "<", 0.5),
    ("N/C(=N/CCCC(N)C(=O)O)NO (configuration not stated)", "=", 100),
    ("NCCCN/C(N)=N/O", "<", 0.5),
    ("NC(=NCCCC(=O)O)NO", "<", 0.5),
    ("NCCCC/N=C(/N)NO", "<", 0.5),
    ("N/C(=N/CCCCC(N)C(=O)O)NO (configuration not stated)", "=", 70),
    ("N/C(=N/CC(N)C(=O)O)NO (configuration not stated)", "<", 0.5),
    ("CCCCN/C(N)=N/O", "=", 41),
    ("CCCCC/N=C(/N)NO", "<", 0.5),
    ("N/C(=N/CCCCC(=O)O)NO", "=", 2),
    ("CCC/N=C(/N)NO", "=", 41),
    ("NC(=NCCC(N)C(=O)O)NO (configuration not stated)", "<", 0.5),
]
